Recorded IC50 at 24 h by entry
test: DNDI: Cytotoxicity against L929 mouse fibroblasts, CYTO-SP, 24 hour; type: toxicity, cell-based; details: mouse, L929 mouse fibroblasts

The examples below pair each entry with its known result.
# compound, IC50 at 24 h
records = [
    ("CCCCCC(C)NCc1coc(-c2cccc(OCC)c2)n1 (stereo unspecified)", "17 µg/mL"),
    ("COc1cc(C)ccc1Oc1ncccc1/C(=N/O)NC1CCCCC1", "> 50 µg/mL"),
    ("COc1cc(C)ccc1Oc1nc(C)ccc1/C(=N/O)NCc1cc(C)cc(C)c1", "> 50 µg/mL"),
    ("O/N=C(\\NC1CCCCC1)c1ccccc1Oc1ccccc1", "> 50 µg/mL"),
    ("COc1ccc(C(=N)NO)cc1", "> 50 µg/mL"),
]

Then this compound:
Determine from records and report IC50 at 24 h for CCC(CC)N/C(=N\O)c1cccnc1Oc1ccc(C)c2c1CCC2
> 50 µg/mL
